Data provenance is ChEMBL document CHEMBL2034968.

Test system: Hepatitis C virus
protocol: Antiviral activity against Hepatitis C virus subtype 1b harboring protease D168A mutant by transient replicon assay
Assay type: functional, organism-based, Hepacivirus hominis
conditions: genotype 1b
pEC50: −log10 of the molar value.
Please mark T if the recorded pEC50 is equal to or greater than 7, and F if it falls below.

molecule=COc1ccc2c(O[C@@H]3C[C@H]4C(=O)N[C@]5(C(=O)NS(=O)(=O)C6CC6)C[C@H]5/C=C\CCCCC[C@H](NC(=O)N5CCCCC5)C(=O)N4C3)cc(-c3nc(C(C)C)cs3)nc2c1C qualitative_label=T
molecule=COc1ccc2c(O[C@@H]3C[C@H]4C(=O)N[C@]5(C(=O)NS(=O)(=O)C6CC6)C[C@H]5/C=C\CCCCC[C@H](NC(=O)N5CCC(CC(N)=O)CC5)C(=O)N4C3)cc(-c3nc(C(C)C)cs3)nc2c1C qualitative_label=F
molecule=CCN(C(=O)N[C@H]1CCCCC/C=C\[C@@H]2C[C@@]2(C(=O)NS(=O)(=O)C2CC2)NC(=O)[C@@H]2C[C@@H](Oc3cc(-c4nc(C5CC5)cs4)nc4c(C)c(OC)ccc34)CN2C1=O)C(C)C qualitative_label=T
molecule=COc1ccc2c(O[C@@H]3C[C@H]4C(=O)N[C@]5(C(=O)NS(=O)(=O)C6CC6)C[C@H]5/C=C\CCCCC[C@H](NC(=O)N(C)C(C)C)C(=O)N4C3)cc(-c3nc(C4CC4)cs3)nc2c1C qualitative_label=T
molecule=COc1ccc2c(O[C@@H]3C[C@H]4C(=O)N[C@]5(C(=O)NS(=O)(=O)C6CC6)C[C@H]5/C=C\CCCCC[C@H](NC(=O)NCc5ccc6c(c5)B(O)OC6)C(=O)N4C3)cc(-c3nc(C(C)C)cs3)nc2c1C qualitative_label=F
molecule=COc1ccc2c(O[C@@H]3C[C@H]4C(=O)N[C@]5(C(=O)NS(=O)(=O)C6CC6)C[C@H]5/C=C\CCCCC[C@H](NC(=O)N5C[C@@H](C)O[C@@H](C)C5)C(=O)N4C3)cc(-c3nc(C(C)C)cs3)nc2c1C qualitative_label=F
molecule=COc1ccc2c(O[C@@H]3C[C@H]4C(=O)N[C@]5(C(=O)NS(=O)(=O)C6CC6)C[C@H]5/C=C\CCCCC[C@H](NC(=O)N5CCOCC5)C(=O)N4C3)cc(-c3nc(C(C)C)cs3)nc2c1C qualitative_label=T
molecule=COc1ccc2c(O[C@@H]3C[C@H]4C(=O)N[C@]5(C(=O)NS(=O)(=O)C6CC6)C[C@H]5/C=C\CCCCC[C@H](NC(=O)N5CCC5)C(=O)N4C3)cc(-c3nc(C(C)C)cs3)nc2c1C qualitative_label=T
molecule="COc1ccc2c(O[C@@H]3C[C@H]4C(=O)N[C@]5(C(=O)NS(=O)(=O)C6CC6)C[C@H]5/C=C\\CCCCC[C@H](NC(=O)N5CC6CCCC6C5)C(=O)N4C3)cc(-c3nc(C(C)C)cs3)nc2c1C (stereo partly specified)" qualitative_label=T

* * *

Tested on: Hepatitis C virus
protocol: Antiviral activity against wild type Hepatitis C virus subtype 1b by transient replicon assay
Format: functional, organism-based, Hepacivirus hominis
conditions: genotype 1b
measured_parameter: EC50 (nM)

smiles_code=CCN(C)C(=O)N[C@H]1CCCCC/C=C\[C@@H]2C[C@@]2(C(=O)NS(=O)(=O)C2CC2)NC(=O)[C@@H]2C[C@@H](Oc3cc(-c4nc(C(C)C)cs4)nc4c(C)c(OC)ccc34)CN2C1=O measured=0.2
smiles_code=COc1ccc2c(O[C@@H]3C[C@H]4C(=O)N[C@]5(C(=O)NS(=O)(=O)C6CC6)C[C@H]5/C=C\CCCCC[C@H](NC(=O)N5CCC(C)(C)C5)C(=O)N4C3)cc(-c3nc(C(C)C)cs3)nc2c1C measured=0.1
smiles_code=CCN(CC)C(=O)N[C@H]1CCCCC/C=C\[C@@H]2C[C@@]2(C(=O)NS(=O)(=O)C2CC2)NC(=O)[C@@H]2C[C@@H](Oc3cc(-c4nc(C(C)C)cs4)nc4c(C)c(OC)ccc34)CN2C1=O measured=0.1
smiles_code=COc1ccc2c(O[C@@H]3C[C@H]4C(=O)N[C@]5(C(=O)NS(=O)(=O)C6CC6)C[C@H]5/C=C\CCCCC[C@H](NC(N)=O)C(=O)N4C3)cc(-c3nc(C(C)C)cs3)nc2c1C measured=0.4
smiles_code=COc1ccc2c(O[C@@H]3C[C@H]4C(=O)N[C@@]5(C(=O)NS(=O)(=O)C6CC6)C[C@@H]5/C=C/CCCCN(C)C(=O)[C@@H]4C3)cc(-c3nc(C(C)C)cs3)nc2c1C measured=1
smiles_code=COc1ccc2c(O[C@@H]3C[C@H]4C(=O)N[C@]5(C(=O)NS(=O)(=O)C6CC6)C[C@H]5/C=C\CCCCC[C@H](NC(=O)N(C)C(C)C)C(=O)N4C3)cc(-c3nc(C4CC4)cs3)nc2c1C measured=0.04
smiles_code=COc1ccc2c(O[C@@H]3C[C@H]4C(=O)N[C@]5(C(=O)NS(=O)(=O)C6CC6)C[C@H]5/C=C\CCCCC[C@H](NC(=O)NCc5ccc6c(c5)B(O)OC6)C(=O)N4C3)cc(-c3nc(C(C)C)cs3)nc2c1C measured=0.9
smiles_code=COc1ccc2c(O[C@@H]3C[C@H]4C(=O)N[C@]5(C(=O)NS(=O)(=O)C6CC6)C[C@H]5/C=C\CCCCC[C@H](NC(=O)N5CC(F)(F)C5)C(=O)N4C3)cc(-c3nc(C(C)C)cs3)nc2c1C measured=0.1
smiles_code=COc1ccc2c(O[C@@H]3C[C@H]4C(=O)N[C@]5(C(=O)NS(=O)(=O)C6CC6)C[C@H]5/C=C\CCCCC[C@H](NC(=O)N(C)C(C)(C)C)C(=O)N4C3)cc(-c3nc(C4CC4)cs3)nc2c1C measured=0.2
